- Test system: Rattus norvegicus
- run-description: Antiulcer activity in Wistar Rattus norvegicus (rat) assessed as decrease in total acidity of gastric secretions at 0.0289 mM/kg, po administered 1 hr prior to pylorous ligation measured after 19 hr by titRattus norvegicus (rat)ion assay relative to untreated control
- Format: functional, Stomach
- Set-up: scale not given: the % may be the effect or the level left
Entries annotated with measured Activity
Answer shape: numeric part, then the unit.

# annotated cases, reported Activity shown
COc1ccc2[nH]c([S+]([O-])Cc3nc(Cl)c4c(-c5ccccc5)csc4n3)nc2c1 (stereo not drawn) : 20.76%
COc1ccc2[nH]c([S+]([O-])Cc3nc(Cl)c4c5c(sc4n3)CCCC5)nc2c1 (stereo not drawn) : 24.37%

Entry COc1ccc2[nH]c([S+]([O-])Cc3nc(Cl)c4c(-c5ccc(Cl)cc5)csc4n3)nc2c1 (stereo not drawn) : reported Activity = ?
18.05%

Entry COc1nc(C[S+]([O-])c2nc3ccccc3[nH]2)nc2scc(-c3ccccc3)c12 (stereo not drawn) : reported Activity = ?
23.92%

Entry [O-][S+](Cc1nc(OCC(F)(F)F)c2c3c(sc2n1)CCCC3)c1nc2ccccc2[nH]1 (stereo not drawn) : reported Activity = ?
27.08%
